Provide the reported activation of each item.
target: CCR4 (Homo sapiens); construct: expressed in transfected cells; test: Figure S2a opioid peptide screen on chemokine receptors; type: cell-based; design: dose or concentration left out as unconfirmed; conditions: replicate 2, read-out: CCR4 activity, ctrl+ = 100
Sequence (P51679 whole entry): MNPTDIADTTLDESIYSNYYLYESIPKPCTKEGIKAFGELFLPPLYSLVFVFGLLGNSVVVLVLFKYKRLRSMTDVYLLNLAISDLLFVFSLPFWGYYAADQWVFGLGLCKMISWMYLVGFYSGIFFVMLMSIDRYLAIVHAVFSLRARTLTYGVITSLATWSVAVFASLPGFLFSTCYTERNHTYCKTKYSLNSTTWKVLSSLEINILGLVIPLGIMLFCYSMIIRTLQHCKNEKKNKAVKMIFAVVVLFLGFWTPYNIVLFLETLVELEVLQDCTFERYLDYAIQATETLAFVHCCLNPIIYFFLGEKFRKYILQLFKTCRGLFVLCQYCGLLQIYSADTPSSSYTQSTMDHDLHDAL
Starred links: 1 amine or outer side, 2 acyl side, 3 side chain; linkers in the order of their positions; H or OH if unused. Non-standard residues stand in square brackets, D forms with d. Residues, ends and D or L forms follow the SMILES beside them. X1 = N[C@@H](Cc1ccccc1)CN(CC(=O)[*:2])[*:1]
Answer in %, number only, no unit symbol.

Suppose we examine the compound C[C@H](NC(=O)CNC(=O)[C@@H](NC(=O)[C@H](Cc1ccccc1)NC(=O)CNC(=O)CNC(=O)[C@@H](N)Cc1ccccc1)[C@@H](C)O)C(=O)N[C@@H](CCCNC(=N)N)C(=O)N[C@@H](CCCCN)C(=O)N[C@@H](CO)C(=O)N[C@@H](C)C(=O)N[C@@H](CCCNC(=N)N)C(=O)N[C@@H](CCCCN)C(N)=O [Nociceptin 1-13] ; what activation value has been reported?
0.246

Same again, this time with NC(=O)[C@H](Cc1ccccc1)NC(=O)[C@H](Cc1c[nH]c2ccccc12)NC(=O)[C@@H]1CCCN1C(=O)[C@@H](N)Cc1ccc(O)cc1 [Endomorphin-1]
-1.89

Also C[C@H](NC(=O)CNC(=O)[C@@H](NC(=O)[C@H](Cc1ccccc1)NC(=O)CNC(=O)CNC[C@@H](N)Cc1ccccc1)[C@@H](C)O)C(=O)N[C@@H](CCCNC(=N)N)C(=O)N[C@@H](CCCCN)C(=O)N[C@@H](CO)C(=O)N[C@@H](C)C(=O)N[C@@H](CCCNC(=N)N)C(=O)N[C@@H](CCCCN)C(N)=O [FG Nociceptin 1-13] (H-[X1]GFTGARKSARK-NH2) ?
-1.43

====

target: CCR1 (Homo sapiens); construct: expressed in transfected cells; assay: Figure S2a opioid peptide screen on chemokine receptors; type: cell-based; parameters: dose or concentration left out as unconfirmed; details: replicate 1, read-out: CCR1 activity, ctrl+ = 100
Starred links: 1 amine or outer side, 2 acyl side, 3 side chain; linkers in the order of their positions; H or OH if unused. Non-standard residues stand in square brackets, D forms with d. Residues, ends and D or L forms follow the SMILES beside them. X1 = N[C@@H](Cc1ccccc1)CN(CC(=O)[*:2])[*:1]
Answer each item with its documented activation.
# output: bare number, implied unit %

Enter reported activation observed with CCR1 (Homo sapiens) for NC(=O)[C@H](Cc1ccccc1)NC(=O)[C@H](Cc1c[nH]c2ccccc12)NC(=O)[C@@H]1CCCN1C(=O)[C@@H](N)Cc1ccc(O)cc1 [Endomorphin-1]
3.57

Next: C[C@H](NC(=O)CNC(=O)[C@@H](NC(=O)[C@H](Cc1ccccc1)NC(=O)CNC(=O)CNC[C@@H](N)Cc1ccccc1)[C@@H](C)O)C(=O)N[C@@H](CCCNC(=N)N)C(=O)N[C@@H](CCCCN)C(=O)N[C@@H](CO)C(=O)N[C@@H](C)C(=O)N[C@@H](CCCNC(=N)N)C(=O)N[C@@H](CCCCN)C(N)=O [FG Nociceptin 1-13] (H-[X1]GFTGARKSARK-NH2)
5.65

Then what about the compound `CC(C)C[C@H](NC(=O)[C@H](CCCCN)NC(=O)[C@H](CCCN=C(N)N)NC(=O)[C@H](C)NC(=O)[C@H](CO)NC(=O)[C@H](CCCCN)NC(=O)[C@H](CCCN=C(N)N)NC(=O)[C@H](C)NC(=O)CNC(=O)[C@@H](NC(=O)[C@H](Cc1ccccc1)NC(=O)CNC(=O)CNC(=O)[C@@H](N)Cc1ccccc1)[C@@H](C)O)C(=O)N[C@@H](C)C(=O)N[C@@H](CC(N)=O)C(=O)N[C@@H](CCC(N)=O)C(=O)O` ?
-16.6

How about this compound: `CC[C@H](C)[C@H](NC(=O)[C@H](CCCNC(=N)N)NC(=O)[C@H](CCCNC(=N)N)NC(=O)[C@H](CC(C)C)NC(=O)[C@H](Cc1ccccc1)NC(=O)CNC(=O)CNC(=O)[C@@H](N)Cc1ccc(O)cc1)C(=O)N[C@@H](CCCNC(=N)N)C(=O)N1CCC[C@H]1C(=O)N[C@@H](CCCCN)C(=O)N[C@@H](CC(C)C)C(=O)N[C@@H](CCCCN)C(=O)N[C@@H](Cc1c[nH]c2ccccc12)C(=O)N[C@@H](CC(=O)O)C(=O)N[C@@H](CC(N)=O)C(=O)N[C@@H](CCC(N)=O)C(=O)O`
-16.7

How about `CC[C@H](C)[C@H](NC(=O)[C@H](CCCNC(=N)N)NC(=O)[C@H](CCCNC(=N)N)NC(=O)[C@H](CC(C)C)NC(=O)[C@H](Cc1ccccc1)NC(=O)CNC(=O)CN)C(=O)N[C@@H](CCCNC(=N)N)C(=O)N1CCC[C@H]1C(=O)N[C@@H](CCCCN)C(=O)N[C@@H](CC(C)C)C(=O)N[C@@H](CCCCN)C(=O)N[C@@H](Cc1c[nH]c2ccccc12)C(=O)N[C@@H](CC(=O)O)C(=O)N[C@@H](CC(N)=O)C(=O)N[C@@H](CCC(N)=O)C(=O)O` ?
-21

What do you have for `C[C@H](NC(=O)CNC(=O)[C@@H](NC(=O)[C@H](Cc1ccccc1)NC(=O)CNC(=O)CNC(=O)[C@@H](N)Cc1ccccc1)[C@@H](C)O)C(=O)N[C@@H](CCCNC(=N)N)C(=O)N[C@@H](CCCCN)C(=O)N[C@@H](CO)C(=O)N[C@@H](C)C(=O)N[C@@H](CCCNC(=N)N)C(=O)N[C@@H](CCCCN)C(N)=O` ?
-0.621

====

I'd be grateful if you could share measured activation for these entries.
Target: CCR1 (Homo sapiens)
Construct: expressed in transfected cells
Sequence (P32246 1-355): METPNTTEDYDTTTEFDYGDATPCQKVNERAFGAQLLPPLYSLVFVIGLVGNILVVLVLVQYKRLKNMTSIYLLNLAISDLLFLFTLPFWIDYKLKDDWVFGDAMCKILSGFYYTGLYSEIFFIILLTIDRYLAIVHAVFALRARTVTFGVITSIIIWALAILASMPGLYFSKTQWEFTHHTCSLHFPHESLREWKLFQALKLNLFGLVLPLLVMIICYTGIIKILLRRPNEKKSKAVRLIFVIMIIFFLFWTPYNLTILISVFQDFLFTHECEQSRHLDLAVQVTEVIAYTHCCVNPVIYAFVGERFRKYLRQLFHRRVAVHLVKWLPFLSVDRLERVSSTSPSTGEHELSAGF
Test: Figure S2a opioid peptide screen on chemokine receptors
Format: cell-based
Set-up: dose or concentration left out as unconfirmed
Conditions: replicate 2, read-out: CCR1 activity, ctrl+ = 100
Starred links: 1 amine or outer side, 2 acyl side, 3 side chain; linkers in the order of their positions; H or OH if unused. Non-standard residues stand in square brackets, D forms with d. Residues, ends and D or L forms follow the SMILES beside them. X1 = N[C@@H](Cc1ccccc1)CN(CC(=O)[*:2])[*:1]
Answer format: numeric, % implied, no suffix.

Any idea what activation was measured for NC(=O)[C@H](Cc1ccccc1)NC(=O)[C@H](Cc1c[nH]c2ccccc12)NC(=O)[C@@H]1CCCN1C(=O)[C@@H](N)Cc1ccc(O)cc1 [Endomorphin-1] ?
-19.2

Same again, this time with `CC(C)C[C@H](NC(=O)[C@H](Cc1ccccc1)NC(=O)CNC(=O)CNC(=O)[C@@H](N)Cc1ccc(O)cc1)C(=O)N[C@@H](CCCN=C(N)N)C(=O)N[C@@H](CCCN=C(N)N)C(=O)N[C@@H](CCC(N)=O)C(=O)N[C@@H](Cc1ccccc1)C(=O)N[C@@H](CCCCN)C(=O)N[C@H](C(=O)N[C@H](C(=O)N[C@H](C(=O)O)[C@@H](C)O)C(C)C)C(C)C`
-13.7

Subsequent entry: C[C@H](NC(=O)CNC(=O)[C@@H](NC(=O)[C@H](Cc1ccccc1)NC(=O)CNC(=O)CNC[C@@H](N)Cc1ccccc1)[C@@H](C)O)C(=O)N[C@@H](CCCNC(=N)N)C(=O)N[C@@H](CCCCN)C(=O)N[C@@H](CO)C(=O)N[C@@H](C)C(=O)N[C@@H](CCCNC(=N)N)C(=O)N[C@@H](CCCCN)C(N)=O [FG Nociceptin 1-13] (H-[X1]GFTGARKSARK-NH2)
-10.1

Entry `CSCC[C@H](NC(=O)[C@H](Cc1ccccc1)NC(=O)CNC(=O)CNC(=O)[C@@H](N)Cc1ccc(O)cc1)C(=O)N[C@@H](CCCNC(=N)N)C(=O)N[C@@H](CCCNC(=N)N)C(=O)N[C@H](C(N)=O)C(C)C` please
8.25

Same for `CC(C)C[C@H](NC(=O)[C@H](CCCCN)NC(=O)[C@H](CCCN=C(N)N)NC(=O)[C@H](C)NC(=O)[C@H](CO)NC(=O)[C@H](CCCCN)NC(=O)[C@H](CCCN=C(N)N)NC(=O)[C@H](C)NC(=O)CNC(=O)[C@@H](NC(=O)[C@H](Cc1ccccc1)NC(=O)CNC(=O)CNC(=O)[C@@H](N)Cc1ccccc1)[C@@H](C)O)C(=O)N[C@@H](C)C(=O)N[C@@H](CC(N)=O)C(=O)N[C@@H](CCC(N)=O)C(=O)O`
-34.2

What about this compound? `CC[C@H](C)[C@H](NC(=O)[C@H](CCCNC(=N)N)NC(=O)[C@H](CCCNC(=N)N)NC(=O)[C@H](CC(C)C)NC(=O)[C@H](Cc1ccccc1)NC(=O)CNC(=O)CNC(=O)[C@@H](N)Cc1ccc(O)cc1)C(=O)N[C@@H](CCCNC(=N)N)C(=O)N1CCC[C@H]1C(=O)N[C@@H](CCCCN)C(=O)N[C@@H](CC(C)C)C(=O)N[C@@H](CCCCN)C(=O)N[C@@H](Cc1c[nH]c2ccccc12)C(=O)N[C@@H](CC(=O)O)C(=O)N[C@@H](CC(N)=O)C(=O)N[C@@H](CCC(N)=O)C(=O)O`
4.28

Param item: `CC[C@H](C)[C@H](NC(=O)[C@H](CCCNC(=N)N)NC(=O)[C@H](CCCNC(=N)N)NC(=O)[C@H](CC(C)C)NC(=O)[C@H](Cc1ccccc1)NC(=O)CNC(=O)CN)C(=O)N[C@@H](CCCNC(=N)N)C(=O)N1CCC[C@H]1C(=O)N[C@@H](CCCCN)C(=O)N[C@@H](CC(C)C)C(=O)N[C@@H](CCCCN)C(=O)N[C@@H](Cc1c[nH]c2ccccc12)C(=O)N[C@@H](CC(=O)O)C(=O)N[C@@H](CC(N)=O)C(=O)N[C@@H](CCC(N)=O)C(=O)O`
-15.3

Follow-up item: `CC[C@H](C)[C@H](NC(=O)[C@H](CCCNC(=N)N)NC(=O)[C@H](CCCNC(=N)N)NC(=O)[C@H](CC(C)C)NC(=O)[C@H](Cc1ccccc1)NC(=O)CNC(=O)CNC(=O)[C@@H](N)Cc1ccc(O)cc1)C(=O)N[C@@H](CCCNC(=N)N)C(=O)N1CCC[C@H]1C(=O)N[C@@H](CCCCN)C(=O)N[C@@H](CC(C)C)C(=O)N[C@@H](CCCCN)C(=O)O`
-26.2

Similarly, `C[C@H](NC(=O)CNC(=O)[C@@H](NC(=O)[C@H](Cc1ccccc1)NC(=O)CNC(=O)CNC(=O)[C@@H](N)Cc1ccccc1)[C@@H](C)O)C(=O)N[C@@H](CCCNC(=N)N)C(=O)N[C@@H](CCCCN)C(=O)N[C@@H](CO)C(=O)N[C@@H](C)C(=O)N[C@@H](CCCNC(=N)N)C(=O)N[C@@H](CCCCN)C(N)=O` ?
1.74
